Entry source: PubChem BioAssay AID1210

# ASSAYED_TARGET: Estrogen receptor beta (Homo sapiens)
# RUN_DESCRIPTION: displacement of fluorescent estrogen from ERbeta – cell-based, Cos7 ERbeta-GFP, flow cytometry, primary screen (AID 1210);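 further: 0% = DMSO vehicle wells and 100% = complete loss of labeled estradiol signal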
# DETAILS: fluorescent estrogen binding, at 10 µM
Active and inactive are the calls of the source.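 How the source made its calls: active means blocks over 70% of labeled estradiol binding at 10 µM, or over a set limit at 100 nM; inactive means the rest.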
Outcomes you can answer with include only these: class 1 = active, class 0 = inactive

Could you check what this test reported for CCC1(C)NC(=O)N(CC(=O)Nc2sc3c(c2C(N)=O)CCC3)C1=O (stereo not given) ?
class 0

Could you check what this test reported for `O=C(OCC(=O)N1CCN(C(=O)c2ccco2)CC1)c1cc(-c2ccco2)nc2ccccc12` ?
class 0

Could you check what this test reported for `O=C(Nc1ccc(O)cc1C(=O)O)c1ccc2c(c1)C(=O)N(Cc1ccco1)C2=O` ?
class 1

Could you check what this test reported for `CC1=C(SCCC#N)S/C(=C2\SC(C)=C(SCCC#N)S2)S1` ?
class 0

Could you check what this test reported for `Cc1ccccc1Nc1nnc(SCC(=O)NC(=O)NCc2ccco2)s1` ?
class 1

Could you check what this test reported for COC(=O)c1ccc2c(=O)n(CC3CCCO3)c(SCC(=O)Nc3ccccc3Cl)nc2c1 (stereo not given) ?
class 0

Could you check what this test reported for Fc1ccc2c(c1)C1C=CCC1C(c1cc3c(cc1Br)OCO3)N2 (stereo not given) ?
class 0

Could you check what this test reported for `O=C(Oc1ccc(-c2cnc3ccccc3n2)cc1)c1ccc(Br)o1` ?
class 1

Could you check what this test reported for `CCO/C([O-])=N/c1c[n+](N2CCOCC2)no1` ?
class 0

Could you check what this test reported for `COc1ccccc1/C=c1\sc2nc(-c3ccco3)nn2c1=O` ?
class 0

---

# ASSAYED_TARGET: Estrogen receptor beta (Homo sapiens) (UniProt Q92731)
# Sequence (Q92731 whole entry, looked up): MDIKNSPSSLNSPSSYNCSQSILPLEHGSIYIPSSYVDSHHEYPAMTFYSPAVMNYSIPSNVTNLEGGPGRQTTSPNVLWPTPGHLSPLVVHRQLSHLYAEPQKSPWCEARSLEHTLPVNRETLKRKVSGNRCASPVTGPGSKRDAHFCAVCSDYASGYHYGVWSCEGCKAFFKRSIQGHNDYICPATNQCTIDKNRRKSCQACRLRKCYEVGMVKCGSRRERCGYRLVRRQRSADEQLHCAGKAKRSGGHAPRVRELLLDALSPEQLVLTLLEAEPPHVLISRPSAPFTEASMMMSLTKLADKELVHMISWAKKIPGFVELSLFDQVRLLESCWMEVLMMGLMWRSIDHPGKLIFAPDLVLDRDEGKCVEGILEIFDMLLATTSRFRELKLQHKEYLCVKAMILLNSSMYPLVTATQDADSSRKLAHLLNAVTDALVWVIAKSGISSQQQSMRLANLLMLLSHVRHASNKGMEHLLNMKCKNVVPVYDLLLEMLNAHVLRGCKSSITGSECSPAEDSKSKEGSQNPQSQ
# RUN_DESCRIPTION: displacement of fluorescent estrogen from ERbeta – cell-based, Cos7 ERbeta-GFP, flow cytometry, primary screen (AID 1210);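 further: 0% = DMSO vehicle wells and 100% = complete loss of labeled estradiol signal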
# DETAILS: fluorescent estrogen binding, ligand binding inhibition, at 0.1 µM, stronger effect = higher value
OBSERVED_PROPERTY: inhibition (%)
Hi! Could you send only the number? It should be in %, unit omitted.

Tell me inhibition reported for `Cc1nn(-c2ccccc2)c2sc(C(=O)c3c(N)n(C)c(=O)n(C)c3=O)cc12`
32

Tell me inhibition reported for `Cc1cccn2c(=O)c3cc(C(=O)O)n(C)c3nc12`
11

Tell me inhibition reported for `CN(C(=S)Nc1cccnc1)c1ccc(O)cc1`
54

Tell me inhibition reported for `Cc1ccc(-c2nn(-c3ccccc3)cc2/C=N/NC(=O)c2ccc(Br)o2)cc1`
58

Tell me inhibition reported for CC(C)C1Nc2c(O)cc(Cl)c([N+](=O)[O-])c2C2C=CCC21 (stereo unspecified)
5

Tell me inhibition reported for `Cc1cc(-c2ccccc2)nc2cc(C(N)=O)nn12`
14

Tell me inhibition reported for `CCCCn1c(NC(=O)CC)c(C#N)c2nc3ccccc3nc21`
17

Tell me inhibition reported for `CCN(c1ccccc1)S(=O)(=O)c1ccc2[nH]cc(C(=O)NCCOC)c(=O)c2c1`
30

Tell me inhibition reported for `Cc1cc(C)n2nc(SCc3cc(=O)oc4cc(O)ccc34)nc2n1`
19

Tell me inhibition reported for CN1C(=O)CC(C(=O)O)SC1=Nc1cc(Cl)c(O)c(Cl)c1 (stereo unspecified)
14

Tell me inhibition reported for `COc1cccc(C(=O)NC2CCN(C(=O)N3c4ccccc4Sc4ccccc43)CC2)c1`
17

---

# ASSAYED_TARGET: Estrogen receptor beta (Homo sapiens) (UniProt Q92731)
# RUN_DESCRIPTION: displacement of fluorescent estrogen from ERbeta – cell-based, Cos7 ERbeta-GFP, flow cytometry, primary screen (AID 1210);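 further: 0% = DMSO vehicle wells and 100% = complete loss of labeled estradiol signal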
# DETAILS: fluorescent estrogen binding, ligand binding inhibition, at 0.1 µM, stronger effect = higher value
Kind request: treat 30% as inclusive, so inhibition at 30% or higher is Condition met, anything lower is Condition not met.

API: above_or_equal(metric=inhibition, cutoff=30%) for item `CCOC(=O)c1ccc(NC(=O)CSc2nc(C)cc(=O)[nH]2)cc1`
Condition not met

API: above_or_equal(metric=inhibition, cutoff=30%) for item `O=C(CSc1nnc(SCC(=O)c2ccco2)s1)c1ccco1`
Condition met

API: above_or_equal(metric=inhibition, cutoff=30%) for item `CN(C)c1ccc(N=Cc2ccco2)cc1`
Condition not met

API: above_or_equal(metric=inhibition, cutoff=30%) for item `Cc1c(N=Cc2ccc(O)c(Br)c2)cccc1[N+](=O)[O-]`
Condition met

API: above_or_equal(metric=inhibition, cutoff=30%) for item CCc1ccc2[nH]c(=O)c(C3C(C#N)=C(N)Oc4c3ccc3cccnc43)cc2c1 (stereo unspecified)
Condition met

API: above_or_equal(metric=inhibition, cutoff=30%) for item CCCCNS(=O)(=O)c1ccc(NC(=O)C(Sc2ccccc2)c2ccccc2)cc1 (stereo unspecified)
Condition not met

API: above_or_equal(metric=inhibition, cutoff=30%) for item `Cc1cc(C)cc(OCC(=O)Nc2ccc(N3CCCC3)cc2)c1`
Condition met

API: above_or_equal(metric=inhibition, cutoff=30%) for item `CCOC(=O)CSc1nn(C)c(=S)s1`
Condition met

API: above_or_equal(metric=inhibition, cutoff=30%) for item `O=c1cc(-c2ccco2)oc2c1ccc1ccccc12`
Condition not met

API: above_or_equal(metric=inhibition, cutoff=30%) for item O=C(O)C1Nc2c(O)cccc2C2C=CCC12 (stereo unspecified)
Condition not met

API: above_or_equal(metric=inhibition, cutoff=30%) for item `Cn1nc([N+](=O)[O-])c2c(-c3nc4ccccc4s3)c(N)n(C3CCCCC3)c2c1=O`
Condition met

---

# ASSAYED_TARGET: Estrogen receptor beta (Homo sapiens) (UniProt Q92731)
# RUN_DESCRIPTION: displacement of fluorescent estrogen from ERbeta – cell-based, Cos7 ERbeta-GFP, flow cytometry, primary screen (AID 1210);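 further: 0% = DMSO vehicle wells and 100% = complete loss of labeled estradiol signal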
# DETAILS: fluorescent estrogen binding, ligand binding inhibition, at 0.1 µM, stronger effect = higher value
OBSERVED_PROPERTY: inhibition (%)
Hi! Could you send only the number? It should be in %, unit omitted.

Tell me inhibition reported for `CCOC(=O)Cn1cnc2sc3c(c2c1=O)CCC3`
28

Tell me inhibition reported for `Fc1ccc2c(c1)[C@H]1OCC[C@H]1[C@@H](c1ccco1)N2`
1

Tell me inhibition reported for `O=C(Cc1cccs1)Nc1ccc(S(=O)(=O)N2CCCCC2)cc1`
38

Tell me inhibition reported for `O=C(CNc1ccccc1)N/N=C/c1cn(-c2ccccc2)nc1-c1ccccc1`
48

Tell me inhibition reported for `Cc1ccc(/C=c2\sc3nc(-c4ccco4)nn3c2=O)o1`
27

Tell me inhibition reported for `CC(C)c1ccc2c(c1)[C@H]1OCC[C@H]1[C@@H](c1cccs1)N2`
36

Tell me inhibition reported for `N#Cc1ccc(-c2cccnc2)nc1SCC(=O)Nc1sc2c(c1C#N)CCC2`
10

Tell me inhibition reported for `O=C(Nc1ccccc1[N+](=O)[O-])C1=C(O)CCn2c1nc1ccccc12`
46

Tell me inhibition reported for `Cc1ccc(N=Cc2c(O)n(-c3ccc4c(c3)OCO4)c(=O)c3ccccc23)cc1`
21

Tell me inhibition reported for `CCn1c(SCC(=O)Nc2ccc3c(c2)oc2ccccc23)nnc1-c1ccc(N)cc1`
18

Tell me inhibition reported for O=C1Nc2ccccc2SC(c2ccccc2)C1O (stereo unspecified)
26

---

Field: inhibition. Provide a value for each of the compounds that follow.
# ASSAYED_TARGET: Estrogen receptor beta (Homo sapiens)
# RUN_DESCRIPTION: displacement of fluorescent estrogen from ERbeta – cell-based, Cos7 ERbeta-GFP, flow cytometry, primary screen (AID 1210);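 further: 0% = DMSO vehicle wells and 100% = complete loss of labeled estradiol signal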
# DETAILS: fluorescent estrogen binding, ligand binding inhibition, at 0.1 µM, stronger effect = higher value
Hi! Could you send only the number? It should be in %, unit omitted.

Tell me inhibition reported for `Oc1ccc(/C=C/c2nc(-c3ccccc3O)n(-c3ccccc3)n2)cc1`
31

Tell me inhibition reported for `COc1ccccc1N1CCN(C(=O)c2ccc3nc(-c4ccco4)c(-c4ccco4)nc3c2)CC1`
11

Tell me inhibition reported for COC(=O)c1ccc2c(=O)n(CC3CCCO3)c(SCC(=O)Nc3ccccc3Cl)nc2c1 (stereo unspecified)
4

Tell me inhibition reported for Brc1cc2c(cc1C1Nc3ccccc3C3C=CCC31)OCO2 (stereo unspecified)
25

Tell me inhibition reported for `C=CCn1c(SCC(=O)NC(=O)NCc2ccco2)nc2sc(CC)cc2c1=O`
10

Tell me inhibition reported for `C[C@@H]1O[C@@H](Oc2c(-c3cc(O)c(O)c(O)c3)oc3cc(O)cc(O)c3c2=O)[C@H](O)[C@H](O)[C@H]1O`
30

Tell me inhibition reported for Cc1cccc(N2CSC3=C(C#N)C(c4ccc(C)o4)CC(=O)N3C2)c1 (stereo unspecified)
21

Tell me inhibition reported for `Nc1ccc2nc(-c3cccs3)[nH]c2c1`
34

Tell me inhibition reported for `CCN(c1ccccc1)S(=O)(=O)c1cc(C(=O)O)ccc1C`
13

Tell me inhibition reported for `CCc1ccc(NC(=O)c2noc3c2CCC3)cc1`
22

Tell me inhibition reported for COc1ccc(C2CC(c3ccccc3)=NN2c2ccc(N)cc2)cc1 (stereo unspecified)
23
